biological target: PLK-1 (Homo sapiens); construct: His tag (N, cleaved yes); TEV cleavage site (N, cleaved yes); experiment: Biochemical assay for inhibitors of PLK-1 kinase activity (33P trans-phosphorylation, Dowex); conditions: PLK-1 3 nM, 40 microM ATP, 85 microM alpha-casein
Sequence (P53350 2-345): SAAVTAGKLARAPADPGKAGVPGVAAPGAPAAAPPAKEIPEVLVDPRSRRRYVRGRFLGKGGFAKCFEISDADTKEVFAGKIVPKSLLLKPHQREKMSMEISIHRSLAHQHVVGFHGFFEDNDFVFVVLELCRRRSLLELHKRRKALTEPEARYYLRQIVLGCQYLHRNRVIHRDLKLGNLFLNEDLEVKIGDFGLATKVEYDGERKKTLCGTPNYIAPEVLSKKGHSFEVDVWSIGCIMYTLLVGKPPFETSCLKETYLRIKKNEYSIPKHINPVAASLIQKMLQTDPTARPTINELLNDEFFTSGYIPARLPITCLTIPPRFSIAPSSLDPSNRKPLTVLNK
Hi! Could you tag entries with IC50 below 80 nM as Condition met, and those at or above as Condition not met? Much appreciated.

Please review the entries below; each comes with its answer.
CCc1ccccc1NC(=O)N1Cc2c(NC(=O)c3ccc(N4CCN(C)CC4)cc3)n[nH]c2C1(C)C Condition not met
CN1CCN(c2ccc(C(=O)Nc3n[nH]c4c3CN(C(=O)Cc3cccs3)C4(C)C)cc2)CC1 Condition met
CN1CCN(c2ccc(C(=O)Nc3n[nH]c4c3CN(C(=O)Cc3ccccc3C(F)(F)F)C4(C)C)cc2)CC1 Condition met
CC1(C)c2[nH]nc(NC(=O)c3cccc(N)c3)c2CN1C(=O)Nc1c(Cl)cccc1Cl Condition met

Q: Is 80 nM strictly greater than the compound's reported IC50? compound: `Cc1ccc(C(=O)Nc2n[nH]c3c2CN(C(=O)Nc2c(Cl)cccc2Cl)C3(C)C)cc1`
A: Condition not met

Q: IC50 strictly < 80 nM for this compound? `CC1(C)c2[nH]nc(NC(=O)c3ccc(N)cc3)c2CN1C(=O)Nc1c(Cl)cccc1Cl`
A: Condition met

src = patent US8227472B2
